inhibition at 15 µM for assorted compounds
# Test system: Leishmania donovani
# Protocol Details: Antileishmanial activity against axenic amastigote Leishmania donovani MHOM/SD/1962/1S-Cl2d assessed as inhibition of parasite growth after 24 hrs at 15 uM by alamarBlue assay
# Format: functional
Give a bare numeral; the unit % is implied.

Chem Smiles: Cc1ccc(C(=O)Nc2cccc(-c3nc4ccccc4[nH]3)c2)cc1
Units Of Measure: %
inhibition at 15 µM: 71

Chem Smiles: Cc1ccc(C)c(C(=O)Nc2cccc(-c3nc4ccccc4[nH]3)c2)c1
Units Of Measure: %
inhibition at 15 µM: 28

Chem Smiles: O=C(Nc1ccccc1-c1nc2ccccc2[nH]1)c1cccs1
Units Of Measure: %
inhibition at 15 µM: 26

Chem Smiles: Cn1c(-c2cccc(NC(=O)c3cccs3)c2)nc2ccccc21
Units Of Measure: %
inhibition at 15 µM: 56

Chem Smiles: O=C(Nc1cccc(-c2nc3ccccc3[nH]2)c1)c1cccs1
Units Of Measure: %
inhibition at 15 µM: 48

Chem Smiles: CC(C)(C)C(=O)Nc1cccc(-c2nc3ccccc3[nH]2)c1
Units Of Measure: %
inhibition at 15 µM: 44

Chem Smiles: O=C(Nc1cccc(-c2cc3ccccc3[nH]2)c1)c1cccs1
Units Of Measure: %
inhibition at 15 µM: 33

Chem Smiles: Cc1cc(C)cc(C(=O)Nc2cccc(-c3nc4ccccc4[nH]3)c2)c1
Units Of Measure: %
inhibition at 15 µM: 56

[Q] Which inhibition at 15 µM is reported for this compound? O=C(Nc1cccc(-c2nc3ccccc3[nH]2)c1)c1ccccc1F
[A] 37

[Q] What would you report for O=C(Nc1cccc(-c2nc3ccccc3[nH]2)c1)c1ccc(-c2ccccc2)cc1 ?
[A] 80

[Q] What would you report for O=C(Nc1cccc(-c2nc3ccccc3[nH]2)c1)C1CCCC1 ?
[A] 76

Attribution: ChEMBL document CHEMBL3400064
